# Assay summary: Solubilization of resins in the test solvent: BADGE DER 331
# Format: physicochemical
# Measurement parameters: BADGE DER 331 in the compound as solvent, ambient temperature, visual
Recorded endpoint: Solubility at ambient temperature (100 g/l)

Study these solved cases before continuing.
structure_notation=COC(=O)c1ccco1 reported_measurement=Soluble
structure_notation=CCCOC(=O)c1ccco1 reported_measurement=Partial
structure_notation=CCCCCOC(=O)c1ccco1 reported_measurement=Soluble
structure_notation=CC(C)C(=O)/C=C/c1ccco1 reported_measurement=Soluble
structure_notation=Cc1ccc(C=O)o1 reported_measurement=Soluble

Parameters: items (list). Returns: Solubility at ambient temperature (100 g/l) for each item.
1. CCCCN=Cc1ccco1
2. CCCCCCCCN=Cc1ccco1

Result:
1: Partial; 2: Partial

Problem: I'd like to know its Solubility at ambient temperature (100 g/l). The compound in question is O=C(OCCc1ccccc1)c1ccco1
Result: Soluble
